system: WDR5 (Homo sapiens (Human), UniProt P61964)
test name: TR-FRET binding assay (displacement of 10mer-Thr-FAM probe from WDR5)
condition details: read-out: Ki for Inhibition of WDR5 by TR-FRET assay
Answer each item with its documented pKi.
pKi is defined as minus the log10 of a concentration measured in mol/L.

Inquiry: # lookup: WDR5 (Homo sapiens (Human), UniProt P61964) pKi, key = Cc1cc([C@@H](NC(=O)c2cc(Cn3ccn(C)c3=N)cc(N3CCOC[C@H]3C)c2)C2CC2)ccc1F
Reply text: 8.68

Inquiry: State, for WDR5 (Homo sapiens (Human), UniProt P61964), measured pKi of the compound listed here: COc1cc(OC)cc(C(NC(=O)c2cc(Cn3ccn(C)c3=N)cc(-c3ncc(F)cc3C)c2)C2CC2)c1 (stereo not shown)
Reply text: 9.46

Inquiry: // output pKi; input C[C@H](NC(=O)c1cc(Cn2ccn(C)c2=N)cc(-c2cccnc2C(F)(F)F)c1)c1ccc(F)c(Cl)c1 ; system WDR5 (Homo sapiens (Human), UniProt P61964)
Reply text: 9.00

Inquiry: Report pKi from WDR5 (Homo sapiens (Human), UniProt P61964) testing of N=C1SCCN1Cc1cc(C(=O)N[C@H](c2ccc(F)c(F)c2)C2CC2)cc(-c2cccnc2C(F)(F)F)c1
Reply text: 9.54
